# experimental details: Apparent permeability from apical to basolateral side in human Caco2 cells assessed as drug recovery at 10 uM at pH 7.4 after 60 mins by mass spectrometry
# Assay type: ADME, cell-based
# condition parameters: Caco-2, pH 7.4, read-out: Drug recovery
measurement type: recovery at 1 h, 10 µM

Could you tell me which recovery at 1 h, 10 µM is on file for `COCCn1cc(C(=O)C(=O)Nc2ccc(OC(C)C)nc2)c2ccccc21` ?
< 50%

----------
# test target: Tubulin (Sus scrofa, UniProt P02554+P02550)
# experimental details: Displacement of [3H]-colchicine from biotinylated porcine tubulin after 2 hrs by competitive binding assay
# Type: protein assay
measurement type: IC50
The reply should read as a number followed by its unit.

Some compounds with known IC50 results, for comparison:
compound | test target | measurement type | endpoint value
COCCn1cc(C(=O)C(=O)Nc2ccc(OC(C)C)nc2)c2ccccc21 | Tubulin (Sus scrofa, UniProt P02554+P02550) | IC50 | 500 nM
COCCn1cc(C(=O)C(=O)Nc2ccc(OC)nc2)c2cccnc21 | Tubulin (Sus scrofa, UniProt P02554+P02550) | IC50 | 940 nM
COCC(C)(C)n1cc(C(=O)C(=O)Nc2ccc(OC)nc2)c2ccccc21 | Tubulin (Sus scrofa, UniProt P02554+P02550) | IC50 | 2500 nM

What IC50 appears in the records for this compound with Tubulin (Sus scrofa, UniProt P02554+P02550)? COc1ccc(NC(=O)C(=O)c2cn(CC3CCCO3)c3ccccc23)cn1 (stereo unspecified)
420 nM

Requested read-out IC50, target or system Tubulin (Sus scrofa, UniProt P02554+P02550), entry COCC(C)n1cc(C(=O)C(=O)Nc2ccc(OC)nc2)c2ccccc21 (stereo unspecified)
160 nM

Give recorded IC50 with Tubulin (Sus scrofa, UniProt P02554+P02550) for the following compound: `COc1ccc(NC(=O)C(=O)c2cn(C(C)C)c3ccccc23)cn1`
1600 nM
